I'd be grateful if you could share measured half-life at 1 μM for these entries.
METHOD: MLM stability (Low Activity)
Assay type: in vitro ADME, CD-1 mice
CONDITION_NOTES: male, CD-1, mouse, liver microsomes, pH 7.4, Condition 1 (Low Activity), 0.50 mg protein/mL
Report the value in min with no unit label.

Quickly give me recorded half-life at 1 μM for O=C1CCCC[C@]1(c1ccccc1)N1CCCC1 [Compound 27R]
40.4

Quickly give me recorded half-life at 1 μM for COCCN[C@@]1(c2ccccc2)CCCCC1=O [Compound 29R]
30.1

Quickly give me recorded half-life at 1 μM for Cc1ccccc1[C@]1(N)CCCCC1=O [Compound 114R, (R)-2-amino-2-(o-tolyl)cyclohexan-1-one]
43.7

Quickly give me recorded half-life at 1 μM for O=C1CCCC[C@]1(c1ccccc1)N1CCOCC1 [Compound 31R]
11.2

Quickly give me recorded half-life at 1 μM for Cc1ccccc1[C@@]1(N)CCCCC1=O [Compound 114S, (S)-2-amino-2-(o-tolyl)cyclohexan-1-one]
80.9

Quickly give me recorded half-life at 1 μM for O=C1CCCC[C@@]1(c1ccccc1)N1CCOCC1 [Compound 31S]
10.8

Quickly give me recorded half-life at 1 μM for CNC1(c2ccc(C)cc2)CCCCC1=O (racemic) [Compound 119rac]
75.5

Quickly give me recorded half-life at 1 μM for CCN(CC)[C@]1(c2ccccc2)CCCCC1=O [Compound 25S]
8.6

Quickly give me recorded half-life at 1 μM for CC(C)N[C@@]1(c2ccccc2)CCCCC1=O [Compound 28R]
11.3

Quickly give me recorded half-life at 1 μM for Cc1ccc(C2(N)CCCCC2=O)cc1 (racemic) [Compound 120rac, 2-amino-2-(p-tolyl)cyclohexan-1-one]
112

Quickly give me recorded half-life at 1 μM for CC1CN(C2(c3ccccc3)CCCCC2=O)C1 (racemic) [Compound 129rac]
9.3

Quickly give me recorded half-life at 1 μM for COCCN[C@]1(c2ccccc2)CCCCC1=O [Compound 29S]
35.7

Quickly give me recorded half-life at 1 μM for CC1CCN1C1(c2ccccc2)CCCCC1=O (stereo not drawn) [Compound 128mix]
20.3

Quickly give me recorded half-life at 1 μM for Cc1cccc(C2(N)CCCCC2=O)c1 (racemic) [Compound 118rac, 2-amino-2-(m-tolyl)cyclohexan-1-one]
84.4

Quickly give me recorded half-life at 1 μM for O=C1CCCC[C@@]1(c1ccccc1)N1CCCC1 [Compound 27S]
41

Quickly give me recorded half-life at 1 μM for CCN(CC)[C@@]1(c2ccccc2)CCCCC1=O [Compound 25R]
8.5

Quickly give me recorded half-life at 1 μM for CNC1(c2cccc(C)c2)CCCCC1=O (racemic) [Compound 23rac]
52.7

Quickly give me recorded half-life at 1 μM for CC(C)N[C@]1(c2ccccc2)CCCCC1=O [Compound 28S]
14.8
